# testedSystem: Human immunodeficiency virus type 1 integrase (Human immunodeficiency virus 1)
# Sequence (Q7ZJM1 whole entry): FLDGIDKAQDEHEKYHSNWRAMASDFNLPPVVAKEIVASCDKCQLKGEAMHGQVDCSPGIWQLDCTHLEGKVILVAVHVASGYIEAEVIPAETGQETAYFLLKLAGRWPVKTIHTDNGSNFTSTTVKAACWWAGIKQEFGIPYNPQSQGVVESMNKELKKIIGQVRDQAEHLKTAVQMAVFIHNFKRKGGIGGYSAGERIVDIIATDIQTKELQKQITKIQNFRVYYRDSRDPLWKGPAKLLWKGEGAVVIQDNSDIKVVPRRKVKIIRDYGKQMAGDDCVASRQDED
# assayMethodText: Inhibition of HIV1 integrase-mediated 3'-processing activity
pIC50: −log10 of the molar value.
Measured pIC50 values are reported for all entries that follow.

Use the examples below as a reference point.
{"smilesCode": "O=S(=O)(/C=C/c1ccc2[nH]ccc2c1)CS(=O)(=O)/C=C/c1ccc2[nH]ccc2c1", "testedSystem": "Human immunodeficiency virus type 1 integrase (Human immunodeficiency virus 1)", "measuredEndpoint": "pIC50", "result": "< 4.00"}
{"smilesCode": "COc1cc(OC)c(OC)cc1/C=C/S(=O)(=O)CS(=O)(=O)/C=C/c1cc(OC)c(OC)cc1OC", "testedSystem": "Human immunodeficiency virus type 1 integrase (Human immunodeficiency virus 1)", "measuredEndpoint": "pIC50", "result": "< 3.00"}

Please turn your attention to the following entry.
State its pIC50: `O=S(=O)(/C=C/c1cc(Cl)ccc1Cl)CS(=O)(=O)/C=C/c1cc(Cl)ccc1Cl`
< 4.00
